// data source = patent US20260234157A1

- Target under test: AR protein (Homo sapiens, UniProt P10275, T878A)
- Construct: degradation activity of the compounds disclosed in the present disclosure on AR protein in LNCaP cells; host or cells: LNCaP FGC
- Sequence (P10275 whole entry T878A): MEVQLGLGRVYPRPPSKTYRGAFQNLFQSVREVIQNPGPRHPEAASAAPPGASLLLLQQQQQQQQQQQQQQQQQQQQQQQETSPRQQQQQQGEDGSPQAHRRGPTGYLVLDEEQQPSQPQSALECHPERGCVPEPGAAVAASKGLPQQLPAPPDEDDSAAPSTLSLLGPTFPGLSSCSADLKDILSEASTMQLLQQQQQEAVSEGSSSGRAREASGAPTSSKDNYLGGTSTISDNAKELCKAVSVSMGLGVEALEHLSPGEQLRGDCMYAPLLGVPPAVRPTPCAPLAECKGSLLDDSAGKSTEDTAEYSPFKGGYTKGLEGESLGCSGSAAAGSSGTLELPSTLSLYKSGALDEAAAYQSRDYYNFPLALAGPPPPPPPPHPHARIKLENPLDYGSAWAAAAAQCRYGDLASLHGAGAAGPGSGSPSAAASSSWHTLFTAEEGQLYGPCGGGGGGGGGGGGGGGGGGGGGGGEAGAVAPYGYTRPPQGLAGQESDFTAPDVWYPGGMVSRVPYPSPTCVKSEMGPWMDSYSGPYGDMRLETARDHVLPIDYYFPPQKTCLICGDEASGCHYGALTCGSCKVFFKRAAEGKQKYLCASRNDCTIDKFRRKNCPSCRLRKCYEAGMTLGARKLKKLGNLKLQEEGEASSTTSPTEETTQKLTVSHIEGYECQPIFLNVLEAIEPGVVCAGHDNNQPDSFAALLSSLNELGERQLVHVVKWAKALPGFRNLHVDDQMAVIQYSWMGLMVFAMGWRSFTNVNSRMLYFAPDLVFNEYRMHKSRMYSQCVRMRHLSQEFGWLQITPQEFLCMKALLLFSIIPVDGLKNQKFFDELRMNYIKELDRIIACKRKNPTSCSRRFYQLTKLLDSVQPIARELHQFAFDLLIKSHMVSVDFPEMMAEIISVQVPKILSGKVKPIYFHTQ
- Assay procedure: Degradation of AR protein in LNCaP cells (Western blot)
- Type: cell-based
- Test context: LNCaP cells, compound 10 nM, 8 hours, Western blot grayscale, GAPDH internal reference; read-out: Degradation rates of the AR protein in LNCaP cells, 10 nM (%)
- Description: The degradation activity of the compounds disclosed in the present disclosure on AR protein in LNCaP cells (cell source: ATCC) Corresponding solvent controls were also set and cultured for 8 hours. After 8 hours of cultivation, the culture medium was removed and the cells were washed with PBS. […] The protein concentration in the extract was detected by BCA method. […] Bands were analyzed in grayscale using Image Studio software. For each sample, GAPDH protein bands were detected as internal reference. […]

Molecule: COC1(CN2CC3(CCc4cc5c(cc4O3)C(=O)N(C3CCC(=O)NC3=O)C5)C2)CCN(c2ccc(C(=O)N[C@H]3CC[C@H](Oc4ccc(C#N)c(Cl)c4)CC3)nn2)CC1 (stereo partly shown) [Compound 9]
Unit annotation: %
inhibition at 0.01 µM: 56
--
Molecule: N#Cc1ccc(O[C@H]2CC[C@H](NC(=O)c3ccc(N4CCC(F)(CN5CC6(CCc7ccc8c(c7O6)C(=O)N(C6CCC(=O)NC6=O)C8)C5)CC4)nn3)CC2)cc1Cl (stereo partly shown) [Compound 139]
Unit annotation: %
inhibition at 0.01 µM: 42
--
Molecule: COc1cc(O[C@H]2C(C)(C)[C@H](NC(=O)c3ccc(N4CCC(CN5CC6(CCc7cc8c(cc7O6)C(=O)N(C6CCC(=O)NC6=O)C8=O)C5)CC4)cc3)C2(C)C)ccc1C#N (stereo partly shown) [Compound 277]
Unit annotation: %
inhibition at 0.01 µM: 16
--
Molecule: N#Cc1ccc(O[C@H]2CC[C@H](NC(=O)c3ccc(N4CCC5(CCC(N6CCC7(CCc8cc9c(cc8O7)C(=O)N(C7CCC(=O)NC7=O)C9=O)CC6)CC5)C4)nn3)CC2)cc1Cl (stereo partly shown) [Compound 34]
Unit annotation: %
inhibition at 0.01 µM: 57
--
Molecule: N#Cc1ccc(O[C@H]2CC[C@H](NC(=O)c3ccc(N4CCC5(CCC(N6CCC7(CC6)COc6c(ccc8c6C(=O)N(C6CCC(=O)NC6=O)C8)C7)CC5)CC4)nn3)CC2)cc1Cl (stereo partly shown) [Compound 190]
Unit annotation: %
inhibition at 0.01 µM: 53
--
Molecule: COc1cc(OC2CCC(NC(=O)c3cnc(N4CCC(C)(CN5CCC6(CC5)COc5c6ccc6c5CN(C5CCC(=O)NC5=O)C6=O)CC4)nc3)CC2)ccc1C#N (stereo not shown) [Compound 247]
Unit annotation: %
inhibition at 0.01 µM: -10
--
Molecule: COc1cc(O[C@H]2C(C)(C)[C@H](NC(=O)c3ccc(N4CCC(C)(CN5CCC6(CCc7cc8c(cc7O6)C(=O)N(C6CCC(=O)NC6=O)C8)CC5)CC4)cc3)C2(C)C)ccc1C#N (stereo partly shown) [Compound 267]
Unit annotation: %
inhibition at 0.01 µM: 30
--
Molecule: N#Cc1ccc(O[C@H]2CC[C@H](NC(=O)c3ccc(N4CCC(CO)(CN5CCC6(CC5)COc5c6ccc6c5CN(C5CCC(=O)NC5=O)C6=O)CC4)nn3)CC2)cc1Cl (stereo partly shown) [Compound 257]
Unit annotation: %
inhibition at 0.01 µM: 36
--
Molecule: N#Cc1ccc(O[C@H]2CC[C@H](NC(=O)c3ccc(N4CCC(CC5CC5)(CN5CCC6(CC5)COc5c6ccc6c5CN(C5CCC(=O)NC5=O)C6=O)CC4)nn3)CC2)cc1Cl (stereo partly shown) [Compound 211]
Unit annotation: %
inhibition at 0.01 µM: 45
--
Molecule: N#Cc1ccc(O[C@H]2CC[C@H](NC(=O)c3ccc(N4CCC(F)(CN5CCC6(CC5)COc5c6ccc6c5CN(C5CCC(=O)NC5=O)C6=O)CC4)cn3)CC2)cc1Cl (stereo partly shown) [Compound 260]
Unit annotation: %
inhibition at 0.01 µM: 13
